target: T1, human SIRP-α v2 (human); assay: SPR, antibody on GLC chip
T1 construct: also called Human v2; Human V2
T1 sequence (chain, as listed by the source limits assumed): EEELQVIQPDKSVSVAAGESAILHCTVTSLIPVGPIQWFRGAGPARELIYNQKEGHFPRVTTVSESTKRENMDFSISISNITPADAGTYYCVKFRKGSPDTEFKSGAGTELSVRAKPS
pKd: −log10 of the molar value.
Outcome label depends on pKd relative to 10: at/above gives yes, below gives no.

These recorded examples may help you get a feel for the data.
Exercise: Determine whether measured pKd meets or exceeds 10 for antibody 136 variant, light chain Mut_Q38E / heavy chain Mut (antibody, V domains shown) VH: EVQLVESGGGVVQPGRSLRLSCAASGFTFSSYDVNWVRQAPGKGLEWVSLISGSGEIIYYADSVKGRFTISRDNSKNTLYLQMNSLRAEDTAVYYCAKENNRYRFFDDWGQGTLVTVSS VL: EIVLTQSPGTLSLSPGERATLSCRASQSVYTYLAWYQEKPGQAPRLLIYGASSRATGIPDRFSGSGSGTEFTLTISSLQSEDFAVYYCQQYYDRPPLTFGGGTKVEIK
Solution: no

Exercise: Determine whether measured pKd meets or exceeds 10 for antibody 135 variant, light chain wt / heavy chain Mut_V34M (antibody, V domains shown) VH: EVQLVESGGGVVQPGGSLRLSCAASGFSFSIYAMSWVRQAPGKGLEWVSTIGADDTYYADSVKGRFTISRDNSKNTLYLQMNSLRAEDTAVYYCAKDSTVGWSGDFFDYWGQGTLVTVSS VL: EIVLTQSPATLSVSPGERVTFSCRASQNVRSDIAWYQQKPGQAPRLLIYAASSRDTGIPDRFSGSGSGTDFTLTISSLQSEDFGVYYCQQYYDWPPFTFGGGTKVEIK
Solution: yes

Exercise: Determine whether measured pKd meets or exceeds 10 for antibody 135 (antibody, V domains shown, also called AB135; S135) VH: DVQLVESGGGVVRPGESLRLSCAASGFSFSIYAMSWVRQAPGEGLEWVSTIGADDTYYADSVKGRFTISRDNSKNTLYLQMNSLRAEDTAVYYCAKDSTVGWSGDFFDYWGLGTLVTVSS VL: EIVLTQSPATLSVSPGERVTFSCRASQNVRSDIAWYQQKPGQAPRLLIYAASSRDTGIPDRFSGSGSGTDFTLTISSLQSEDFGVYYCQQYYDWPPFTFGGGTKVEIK
Solution: yes

***
Exercise: Determine whether measured pKd meets or exceeds 10 for antibody 135 variant, light chain Mut / heavy chain Mut (antibody, V domains shown) VH: EVQLVESGGGVVQPGGSLRLSCAASGFSFSIYAVSWVRQAPGKGLEWVSTIGADDTYYADSVKGRFTISRDNSKNTLYLQMNSLRAEDTAVYYCAKDSTVGWSGDFFDYWGQGTLVTVSS VL: EIVLTQSPATLSVSPGERVTLSCRASQNVRSDIAWYQQKPGQAPRLLIYAASSRDTGIPARFSGSGSGTDFTLTISSLQSEDFGVYYCQQYYDWPPFTFGGGTKVEIK
Solution: yes

Exercise: Determine whether measured pKd meets or exceeds 10 for antibody 136 variant, light chain Mut / heavy chain Mut (antibody, V domains shown) VH: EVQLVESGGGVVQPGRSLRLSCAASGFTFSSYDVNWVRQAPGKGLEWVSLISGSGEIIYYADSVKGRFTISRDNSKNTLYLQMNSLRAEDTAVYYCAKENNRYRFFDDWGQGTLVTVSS VL: EIVLTQSPGTLSLSPGERATLSCRASQSVYTYLAWYQQKPGQAPRLLIYGASSRATGIPDRFSGSGSGTEFTLTISSLQSEDFAVYYCQQYYDRPPLTFGGGTKVEIK
Solution: no
